pIC50: −log10 of the molar value.
pIC50 values for Epidermal growth factor receptor (Homo sapiens, UniProt P00533) compiled from several publications are listed below.

Solved entries (count: 4):
Compound | Value Kind | Reported Measurement
C=CC(=O)Nc1cccc(Nc2nc(Nc3ccc(NC4CN(CCF)C4)cc3OC)ncc2C(F)(F)F)c1 | pIC50 | 8.00 to 9.00
CCNc1nc(-c2cc(C)cc(OC)c2)c(-c2ccnc(Nc3ccc(N4CCN(C(C)=O)CC4)nc3)n2)o1 | pIC50 | < 6.00
CN1CCN(C2CCN(c3ccc(Nc4nc(N[C@H]5CC[C@H](O)CC5)c(-c5cccc6[nH]ccc56)nc4C(N)=O)cc3)CC2)CC1 | pIC50 | 9.48
COc1ccc(S(C)(=O)=O)cc1Nc1nccc(-c2sc(C(C)C)nc2-c2cccc(NS(=O)(=O)c3c(F)cccc3F)c2F)n1 | pIC50 | 6.00 to 7.00

Measured on Epidermal growth factor receptor (Homo sapiens, UniProt P00533), NC1CCCC(NCc2ccc(-c3ccc4ncnc(Nc5ccc(OCc6cccc(F)c6)c(Cl)c5)c4c3)o2)C1 (stereo not shown) has a documented pIC50 of > 5.00

The reported pIC50 value, Epidermal growth factor receptor (Homo sapiens, UniProt P00533), for "CCOc1nn(C)c2c1/C=C/c1n[nH]c3ccc(cc13)-c1cnn(C)c1OC1CN(C2)C1" reads 6.69

For "C=CC(=O)Nc1cc(-c2c(-c3ccc(N4CCN(C)CC4)cc3)[nH]c3ncc(C(=O)NCc4ccc(CN5CCN(C)CC5)cc4)cc23)ccc1C" on Epidermal growth factor receptor (Homo sapiens, UniProt P00533), measured pIC50 was ≥ 7.00
